Where do these numbers come from? They come from paper PMC11489721.

# Target of assay: heterodimeric receptor (T1R2/T1R3), TMD3 binding site (Homo sapiens, UniProt Q7RTX0+Q8TE23)
# Sequence (Q8TE23 20-839): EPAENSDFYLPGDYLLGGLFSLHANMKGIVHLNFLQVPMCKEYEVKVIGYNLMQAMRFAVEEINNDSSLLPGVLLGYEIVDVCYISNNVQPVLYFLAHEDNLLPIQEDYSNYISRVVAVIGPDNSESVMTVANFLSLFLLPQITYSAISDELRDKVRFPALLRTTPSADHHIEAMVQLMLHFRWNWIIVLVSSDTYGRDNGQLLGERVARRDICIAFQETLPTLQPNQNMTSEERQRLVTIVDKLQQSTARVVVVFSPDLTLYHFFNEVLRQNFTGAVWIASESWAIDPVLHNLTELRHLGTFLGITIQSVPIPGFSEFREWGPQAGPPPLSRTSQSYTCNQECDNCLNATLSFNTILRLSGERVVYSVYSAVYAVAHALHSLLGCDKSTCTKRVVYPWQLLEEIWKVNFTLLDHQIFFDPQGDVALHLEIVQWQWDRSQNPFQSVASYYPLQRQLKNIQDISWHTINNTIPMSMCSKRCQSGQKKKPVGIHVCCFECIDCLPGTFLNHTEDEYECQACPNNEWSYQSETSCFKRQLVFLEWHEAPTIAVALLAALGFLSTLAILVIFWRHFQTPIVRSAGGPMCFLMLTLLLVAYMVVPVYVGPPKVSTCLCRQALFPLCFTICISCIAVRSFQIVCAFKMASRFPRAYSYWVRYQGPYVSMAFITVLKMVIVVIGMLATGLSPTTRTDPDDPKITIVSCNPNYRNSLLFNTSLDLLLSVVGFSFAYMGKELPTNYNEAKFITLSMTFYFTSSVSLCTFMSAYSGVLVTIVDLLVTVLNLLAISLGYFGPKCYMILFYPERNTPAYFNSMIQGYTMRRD
# Sequence (Q7RTX0 21-852): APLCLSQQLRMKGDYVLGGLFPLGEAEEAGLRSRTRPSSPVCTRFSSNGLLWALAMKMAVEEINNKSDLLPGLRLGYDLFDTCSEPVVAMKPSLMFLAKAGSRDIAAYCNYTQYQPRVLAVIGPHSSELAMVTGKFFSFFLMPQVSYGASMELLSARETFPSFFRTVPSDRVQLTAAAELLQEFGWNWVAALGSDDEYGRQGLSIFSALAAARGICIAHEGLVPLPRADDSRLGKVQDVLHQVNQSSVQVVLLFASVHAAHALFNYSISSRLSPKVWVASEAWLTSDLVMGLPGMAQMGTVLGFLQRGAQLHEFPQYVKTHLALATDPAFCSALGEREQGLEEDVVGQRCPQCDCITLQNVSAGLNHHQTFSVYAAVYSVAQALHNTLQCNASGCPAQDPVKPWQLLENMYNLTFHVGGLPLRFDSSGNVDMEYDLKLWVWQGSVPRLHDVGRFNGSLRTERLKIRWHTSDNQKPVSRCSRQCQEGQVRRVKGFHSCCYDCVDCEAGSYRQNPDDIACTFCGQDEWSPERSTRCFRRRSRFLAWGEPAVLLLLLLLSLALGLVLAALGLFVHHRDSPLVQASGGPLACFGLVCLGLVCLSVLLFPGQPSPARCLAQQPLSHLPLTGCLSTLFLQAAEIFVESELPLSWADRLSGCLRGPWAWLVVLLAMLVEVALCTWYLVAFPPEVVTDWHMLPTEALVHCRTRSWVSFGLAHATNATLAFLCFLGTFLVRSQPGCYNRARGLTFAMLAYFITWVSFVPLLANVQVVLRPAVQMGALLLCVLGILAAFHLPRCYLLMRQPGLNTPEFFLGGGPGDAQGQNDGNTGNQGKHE
# Protocol notes: Competition binding with [3H]-lactisole as radioligand
# Experimental parameters: radioligand [3H]-lactisole
Observed property: Competitive inhibition with lactisole

>>> experimental_result("CC(C)Oc1ccc(NC(=S)NCc2ccc[nH]2)cc1 [S819]")
"do not compete"
>>> experimental_result("CC1=CC(=O)NS(=O)(=O)O1 [AceK, Acesulfame K]")
"do not compete"

====

# Target of assay: heterodimeric receptor (T1R2/T1R3) (Homo sapiens, UniProt Q7RTX0+Q8TE23)
# Protocol notes: Effect of GTP and GDP on radioligand binding
# Experimental parameters: read-out: IC50, inhibition of Rebaudioside B binding; radioligand [3H]-Rebaudioside B
Observed property: IC50 (µM)

>>> experimental_result("Nc1nc2c(ncn2[C@@H]2O[C@H](COP(=O)(O)OP(=O)(O)O)[C@@H](O)[C@H]2O)c(=O)[nH]1 [GDP, guanosine diphosphate]")
2150
